These entries and their values trace back to patent US20260335468A1.

# assay-comment: Cell viability of U87 cells with IDPASu (Cell Counting Kit-8)
# Type: cell-based, human
# test-context: human, u87 cells; 100 μM; read-out: cell viability without X-ray
endpoint-name: viability at 24 h, 100 µM (%)

[[record]]
smiles_data = "COC(=C1C2CC3CC(C2)CC1C3)c1cc(O)c(I)cc1/C=C/C1=CC(=C(C#N)C#N)c2ccccc2S1"
endpoint_name = "viability at 24 h, 100 µM"
test_result = 91

